- method: PK in rats, intravenous administration
- Type: in vivo
- assay.conditions: male, Sprague-Dawley, plasma, 3 mg/kg, rat, read-out: Vdss
experimental.readout: Vd

Any idea what its Vd is? The molecule is COC(C)(C)c1cc(S(=O)(=O)NC(=O)Nc2c3c(cc4c2CCC4)CCC3)nn1C
0.9 L/kg

---

- method: PK in rats, intravenous administration
- Type: in vivo
- assay.conditions: male, Sprague-Dawley, 3 mg/kg, rat plasma
experimental.readout: half-life (h)
# value in h; strip the unit string

Reported half-life for COC(C)(C)c1cc(S(=O)(=O)NC(=O)Nc2c3c(cc4c2CCC4)CCC3)nn1C [Example 39] : what is it?
4

Recorded values, source patent US20220106289A1.
